The values you see were collected from ChEMBL document CHEMBL1275290.

assay: Binding affinity to hematin measured as association constant for 1:1 (hematin-compound) complex formation at pH 7.5
Each entry below lists one item and its recorded log Ks value.

Solved cases (5 shown):
>>> val("S=C(NCCCNc1ccnc2cc(Cl)ccc12)N1CCNCC1")
4.46
>>> val("CCN(CC)C(=S)NCCCNc1ccnc2cc(Cl)ccc12")
5.34
>>> val("CN1CCN(C(=S)NCCCNc2ccnc3cc(Cl)ccc23)CC1")
4.98
>>> val("S=C(NCCCNc1ccnc2cc(Cl)ccc12)N1CCN(c2ccccc2)CC1")
5.37
>>> val("S=C(NCCCNc1ccnc2cc(Cl)ccc12)N1CCCC1")
4.98

Suppose we examine the compound S=C(NCCCNc1ccnc2cc(Cl)ccc12)NCCCNc1ccnc2cc(Cl)ccc12 ; what log Ks value has been reported?
5.38

###

assay: Binding affinity to hematin measured as association constant for 1:1 (hematin-compound) complex formation at pH 7.5
Each entry below lists one item and its recorded log Ks value.

>>> val("CNC(=S)NCCCNc1ccnc2cc(Cl)ccc12")
4.57
>>> val("CC(C)N(C(=S)NCCCNc1ccnc2cc(Cl)ccc12)C(C)C")
4.95

Let's switch to this compound now.
Suppose we examine the compound S=C(NCCCNc1ccnc2cc(Cl)ccc12)Nc1ccc(Cl)cc1 ; what log Ks value has been reported?
4.23

###

Each entry below lists one item and its recorded log Ks value.
assay: Binding affinity to hematin measured as association constant for 1:1 (hematin-compound) complex formation at pH 7.5
A bare number is all that is needed in reply.

>>> val("S=C(NCCCNc1ccnc2cc(Cl)ccc12)N1CCCCC1")
5.24

Suppose we examine the compound S=C(NCCCNc1ccnc2cc(Cl)ccc12)NC1CC1 ; what log Ks value has been reported?
5.67

Repeat with CN(C)C(=S)NCCCNc1ccnc2cc(Cl)ccc12
4.87

Repeat with S=C(NCCCNc1ccnc2cc(Cl)ccc12)N1CCOCC1
4.94
